- ASSAY_TARGET: T1, Human PD-1-His protein (ACROBiosystems, # PD1-H5221) (human, UniProt Q15116 25-167)
- T1 construct: Bought reagent, coated on the ELISA plate; also called human PD-1 protein; human PD-1 antigen; not shown: His tag
- T1 sequence (Q15116 25-167 limits assumed): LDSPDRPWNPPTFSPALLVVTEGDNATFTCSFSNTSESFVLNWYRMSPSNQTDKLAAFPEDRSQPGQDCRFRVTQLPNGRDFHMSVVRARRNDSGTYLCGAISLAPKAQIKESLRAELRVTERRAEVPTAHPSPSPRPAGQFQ
- RUN_DESCRIPTION: ELISA, plate-coated human PD-1-His
# pEC50 per entry
Reminder that pEC50 is minus the log10 of a molar concentration.

Problem: Form field: reported pEC50 of PR000673 (antibody, human IgG4 S228P, kappa, V domains shown, Fully human recombinant H2L2 antibody, human IgG4, kappa light chain; also called 4004_10H9A12) VH: QVQLVESGGGVVQPGRSLRLSCAASGFIFSNYGMHWVRQAPGKGLEWVAVIWYDGSKKYYGDSVKGRFTISRDNSKNTLYLQMNSLRDEDTAVYFCARNDDYWGQGTLVTVSS VL: EIVLTQSPATLSFSPGERATLSCRASQSVSSDLAWYQQKPGQAPSLLIYDASNRATGIPARFSGSGSGTDFTLTISSLEPEDFAVYYCHQRNNWPLTFGGGTKVEIKR
Result: 10.18

Problem: And PR000676 (antibody, human IgG4 S228P, kappa, V domains shown, Fully human recombinant H2L2 antibody, human IgG4, kappa light chain; also called 4004_1A7A1) VH: QIQLVESGGGVVQPGRSLRLSCAASGFTLSSYGMHWVRQAPGKGLEWVAVILSDGSNKYYADSVKGRFTISRDNSKNTLYLQMNSLRAEDTAVYYCADLGGDVWGQGTTVTVSS VL: EIVLTQSPATLSLSPGERATLSCRASQSVSSYLAWYQQKPGQAPRLLIYDASTRATGIPARFSGSGSGTDFTLTISSLEPEDFAVYYCQQRSNWPLTFGGGTKVEIKR ?
Result: 9.92
